Each entry below lists one item and its recorded Kd value.
Target: T1, 24P4C12 protein (human) (human, UniProt Q53GD3 1-710)
T1 construct: whole, on cells; also called SLC44A4; CTL4
T1 sequence (looked up): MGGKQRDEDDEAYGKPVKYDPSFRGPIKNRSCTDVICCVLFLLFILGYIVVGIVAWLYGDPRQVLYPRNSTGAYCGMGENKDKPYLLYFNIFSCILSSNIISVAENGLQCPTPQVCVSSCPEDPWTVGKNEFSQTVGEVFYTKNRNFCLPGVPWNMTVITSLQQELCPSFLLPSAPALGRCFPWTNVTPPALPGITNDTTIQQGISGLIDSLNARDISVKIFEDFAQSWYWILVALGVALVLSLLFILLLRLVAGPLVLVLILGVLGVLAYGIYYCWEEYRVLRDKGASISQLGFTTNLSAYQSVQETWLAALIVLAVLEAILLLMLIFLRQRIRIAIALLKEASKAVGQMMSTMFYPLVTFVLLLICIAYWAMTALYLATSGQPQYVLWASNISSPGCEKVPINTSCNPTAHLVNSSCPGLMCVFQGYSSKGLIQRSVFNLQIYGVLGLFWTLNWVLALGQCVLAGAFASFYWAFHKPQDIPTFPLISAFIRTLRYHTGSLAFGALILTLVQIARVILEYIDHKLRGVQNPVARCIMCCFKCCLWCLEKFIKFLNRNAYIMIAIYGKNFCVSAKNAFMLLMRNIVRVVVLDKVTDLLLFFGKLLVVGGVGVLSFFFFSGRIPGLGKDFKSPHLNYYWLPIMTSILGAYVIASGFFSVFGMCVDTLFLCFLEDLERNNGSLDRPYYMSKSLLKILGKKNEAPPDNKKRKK
Assay: FACS saturation equilibrium binding on LNCaP cells
Dear colleague, please return just the value in nM, with no unit written.

Ha5-1(5)1 (antibody, V domains shown, also called HA5-1(5)1.1) VH: QVQLVESGGGVVQPGRSLRLSCGASGFTFSSYGMHWVRQAPGKGLEWVAVMSYDGSKKYYTDSVKGRFTISRDNSKNTLYLQMNSLRVEDTAVYYCARDGGDYVRYYYYGMDVWGQGTTVTVSS VL: DIQMTQSPSSLSASVGDRVTITCRARQGITYHLAWYQQRPGKVPKLLIYDTSSLQSGVPSRFSGSGSGTDFTLTISSLQPEDVATYYCQRFNSAPLTFGGGTKVEIK = 4.1

// sample Ha5-7acd7.1.1 (antibody, V domains shown, copies: 2 + 2) VH: QVQLQESGPGLVKPSETLSLTCTVSGGSVSSGGYYWSWIRQPPGKGLEWIGYIYYSGGTNYNPSLKSRVTISVDTSKNQFSLKLTSVTAADTAVYYCARESGYCTNVACFPDAFDIWGQGTMVTVSS VL: DVVMTQSPFSLPVTPGEPASISCRSSQSLLHSNGFNFLDWYLQKPGQSPQLLIYLGSIRASGVPDRFSGSGSGTDFTLKISRVEAEDVGVYYCMQALQTPLTFGGGTRVEIK , its Kd was 1.85

// sample Ha5-7be31.1 (antibody, V domains shown, copies: 2 + 2) VH: QVQLQESGPGLVKPSETLSLTCTVSGGSISSYYWSWIRQPPGKGLEWIGYIYYSGSTNYNPSLKSRVTISVDTSKNQFSLKLSSVTAADTAVYYCARGYYYGAGSYGMDVWGQGTTVTVSS VL: DIVMTQSPLSLPVTPGEPASISCRSSQSLLHSTGFNYLDWYLQKPGQSPQLLIYLGSIRASGVPDRFSGSGSGTDFTLKISRVETEDVGVYYCMQTLQTPITFGQGTRLEIK , its Kd was 4.15
